# System Under Test: MEK (MEK1 wt) (Homo sapiens)
# Sequence (Q02750 whole entry): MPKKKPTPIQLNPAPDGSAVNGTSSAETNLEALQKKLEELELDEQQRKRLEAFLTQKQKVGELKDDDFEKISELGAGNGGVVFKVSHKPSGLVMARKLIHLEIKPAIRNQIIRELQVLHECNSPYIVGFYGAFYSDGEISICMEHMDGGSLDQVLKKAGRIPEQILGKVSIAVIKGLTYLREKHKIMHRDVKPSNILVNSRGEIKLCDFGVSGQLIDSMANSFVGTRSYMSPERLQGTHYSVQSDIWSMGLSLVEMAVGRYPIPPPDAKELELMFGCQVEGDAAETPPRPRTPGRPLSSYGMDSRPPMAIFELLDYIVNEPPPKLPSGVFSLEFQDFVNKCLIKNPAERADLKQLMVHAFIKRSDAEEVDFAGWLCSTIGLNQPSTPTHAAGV
Measure Name: IC50 (µM)
Answer format: numeric, µM implied, no suffix.

Bench note: what IC50 did CC(=O)C1=C(O)C=C2Oc3c(C(N)=O)c(O)cc(O)c3[C@]2(C)C1=O [cercosporamide, Cercosporamide] show?
4.1

Entry source: paper PMC7522027
